Catalogue of sequences with associated protease stability score
assay: protease stability score; higher = more stable; yeast display proteolysis, trypsin and chymotrypsin;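 further: log10 excess protease needed over predicted unfolded state with 0 meaning unfolded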

# Seq Text, protease stability score
rows = [
    ("DDTAVKIATRFWKAVETNDEQTLRDNLDPNVEVRYGDKTYHGMEDILKRLRHDADNMRHKVEIKDYRTHNGQANIDMVVRQEHNGKPERRRFKLHFRISNGRVRTMKLNDDS", 0.733),
    ("DDDNLKRQNEDVNRAVQHGDEKKVADMADPNVKVYYGDKEIHGREKVKEWWKRLADRADSFTVVDIELQGEKIRVRVKANIDGKHVDMEFEAHASNGRVKKMHINPDQFRQLRS", 0.445),
    ("DDQALRLLEEWLKAVQEGDQERAHEMADPNAKFEVGDKTINGMDDVNEQIRRDTESMRYQVQNVHSITRPNHVQADVQFENEHNGNPDTNRMVIQARATNGRIQSLRIQDKK", 0.058),
]

----------
assay: protease stability score; higher = more stable; yeast display proteolysis, trypsin and chymotrypsin;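 further: log10 excess protease needed over predicted unfolded state with 0 meaning unfolded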
Form field: protease stability score (one value per entry).

# Seq Text, protease stability score
data = [
    ("DQRTREKVAEDIDNNDPQKLQDQADENVRVEYGNKVVHGREQMQEWARSLKDDVDSLEVDHVELDGDKIDARVNFNVNGRRVVFTIEADAHNGTIQRLRMTVTSEEQDTHMKQAAN", -0.209),
    ("DEDASKQVEDFERALKTGDENRLHELMDKDARVEVGDKRYHGRKQIARQQVQHYEEMRVDLHVQDIDVQGDKIKVDVTRQIEVNGKPISNRIIIYVTIHNGKIQRMDVDVPDEDMDKIEK", 0.769),
    ("DEEQVKKVLETLVKALQKGNIEEILKMLKEDVEFVLIDEKYQGREDAKKIVKQLVDQGMEVHFDRHEVTGNQAHVQTRWHYGNKEAHAEVTYYVKGDTVDKVDIQWSETAKKAVKEG", 1.13),
    ("DHQELAEKWFRTFVTNQERGDEESLVKMADKDVRLHIGDKTIHGREQFHHWIQELRRRVDHQSMTVRHIDVQGDKIRIDAEAVFNVNGRNDKFKIDIEAEIQGDKVVLKRIIFN", 1.63),
    ("DEEYNKKVQDIFNTNDPSQFKSLIDPNARMEVGDHVFHGRHNIVKHLKKFRDQVDHFEIKEIDVKGNKLSMEFVAVVNGKRVRATMSQQAHNGRMQEIRIKATSEEDKKILKEVTS", -0.048),
]

----------
test: protease stability score; higher = more stable; yeast display proteolysis, trypsin and chymotrypsin;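 further: log10 excess protease needed over predicted unfolded state with 0 meaning unfolded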
Metric: protease stability score

# Seq Text, Metric, Assay Value
rows = [
    ("DDRQIEVLKDYIKAVQQNDPDRMRQNADPNATFNVGDKRYHGMTEYAEEVAKHLKEMRFEIRDIRLRDHNGKVHVEYEAEYEVNGQPFTQKVSFVAEVTNGHVKRVHYSTDEDLTRIEQK", "protease stability score", -0.24),
    ("DEERNEKAAHEMLKVFQRGDPDQFRDLIDPNARANVGDKKYHGRENLTHMFKHFVHRADHLEMQHVKVSGETVEIHIRAKINGKTIDFTIRIIVDNGKAREINFDPDMLKRMRG", "protease stability score", 1.23),
    ("DEHKLKEFATRIMEAWEQGDPRKLEELMDPNARYIVGDKTLHGREEAKKRMEEFRKNVDHVEFTSVRAQNGHISITFVANVNGERETRVVDIKVDNGRVKNMDIKHK", "protease stability score", 0.7),
    ("DEELEEQVKEFFHAIETGDEDKLRELADPNARFHVGEKNLHGMKDVAERIRREREHIRYTVQIDSIKADGNRAHVRVVAEKEHNGNPRHFVLNVEIVRHNGRIRKVEATEDK", "protease stability score", 0.938),
    ("DEEKMEIVLNAFTAMATNNEEDIERLMDPNVKVTIGDTVIHGREQLQKNADRHRRSARINIKSMSAEVQGDTVRVVVNATREHNGRPQTFQLRAVAVAHNGKVKELNVEEKQ", "protease stability score", 1.48),
    ("DEEKVHKQAHDYRTALQRGDPDRAAHLIDKHARIRVGDHTVNGRTQFKKMMEQLHTRIDKIEFKDVDVQGNKVNINIVVEVNGRRVEVTVDLDVQGDRVKQAVLTFRDPDNAKQMLG", "protease stability score", -0.111),
    ("DEEKMLRIAKKMVDALKNGDKDKVKKLGAEGVKVHAMDEEVEGPDQLAKYAKKFKDIGVHVEYKETEYKGDTVTFHTEAEKGDAKVRFEVHYVVKGDKVQKVEVRVDKDQLTEFRKS", "protease stability score", 0.524),
    ("DEQDEVKTLLDEIRKALETNDRERLRELVDKDAHFEYGDKKYQGSEHAARQMVEEQKNIDSQSVQLRDVQIHNGQANVDVVIEYTHNGRKRTFDAKFRFKVENGRVKLVENVQS", "protease stability score", 0.895),
    ("DEDVKRVMEELVKVMHNNDPNEFMKLLDPNARWTIGDKTYHGRDNLRREVKKHHDQQRVQYKSWHIDVHGERATATAEVRVDHNGQPDTFRLVISAQAHNGRVKRAEYRKDT", "protease stability score", -0.145),
    ("DDELVRSAEHLFKVWQDGNPDEAKRYMDPNAELKVGDKTVHGRDDANRWVEQLQRELRYHFTINNVERQGNTVVIKATATEHHNGKPKTYSVDIEIEAQNGKVKLVIIRING", "protease stability score", -0.09),
    ("DHELENLVEKIMSALTRNNPEDIRSLFDPNARFNIGDKTWNGMDRYITELKKEVDEWDMSVELHSVDIQGNKASAHVEQTAHHDGEPDSFEYTMKLDFHNGKARRQRVNSRK", "protease stability score", -0.248),
    ("DEDQELRSLAEDAVRAMQSNNPDDFVNLFPENARINIGDKNIHGREEIKKHAQEVNTKVDRFSVTIEHIHVHNGKAEFTVDFVMNINGRTERRRASFRIDRIGDKVRIHSADVK", "protease stability score", 0.571),
    ("DKQDLDKLRELWEDELNGDHRSLREQVDPNAKVEIGDKEIHGRDDFAKDAKRRKEEIRVEMRVKSLSASGDTIDAKVHLDFKVNGKPIRLTVHMHVKVENGKFVDLNVRIDERQVRKIRK", "protease stability score", 0.089),
    ("DEERVNDIAHKIAQNLRTNDEEQLVRMMDENAKVTVGEHRIDGREQIRTMWHKIKQHVDHVEVKHVEARGDRIRIIIVLNHNGRQRTIVMYVSIHNGHIKVLKIESQ", "protease stability score", 1.51),
    ("DESQVDEAKKMAKVWEDGDPDQLRRMADPNAKMHIGDKDIRGHTEATRWVRHLSEHMRQRLDSVRVDTEPNRAEAKIQLTVDVNGKPDRYTAHLNMVVDNGRVRKLEVRFDEEDKKRRQS", "protease stability score", -0.139),
    ("DERELSLFHRWLEVLNDGNEENLKQNMDPNAHANIGEKEIHGMEDFARHMITKVKELRIKIDDIKSSAHNGRLTASIDQQDNDNGKPDKYTNTFRAKFSNGQIQSQKVERDG", "protease stability score", -0.31),
    ("DEDAVKLFHNVQHVIEQGDKDKAVKNFDPNASAKVGDKEVHGMEDWVRTLVKEASQLRIDLKWDDYRVHGDKINMNIELNKEHNGHPSTTRMHIDAHVHNGRVKFVAYNRRP", "protease stability score", 0.066),
    ("EEEQQKVLEELFRVLQEGDEKRAIKLADPNAKFNVGDKQYNGMEEYARSVATEIRNIRVEIETMDARVQGDHVQVNIVVNYKINGQPFRMTIKVRANVHNGQVHELNMHVDEDQQRKLKT", "protease stability score", 0.014),
    ("DDDQKRRVEDWWKVLNHGDPDKLRTLADENAKFDVGDKKYHGMTRAADELVRTLREIRLNIRRMEIQVHNGRVVANVDAEVRVNGNPMQIHYTAQMTASNGKITSVQNRIPSEQLKRLRK", "protease stability score", 0.165),
    ("DHDALKRASQFLKAMEQGNEREAVRLVDENARVRYGDKQIHGNKQIRDWVRKMHEQARIRIEVTRVQATGDTVTVTAKVDVDVNGKPQTHDMVFRARVHNGHIKSAEFHFDEEFEKRMNS", "protease stability score", 1.32),
    ("DEDQEDLIRRLIKALDTGDPEQARKNADKDARFNYGDQEIHGMQTFVDDLEKRKRQMHVRITRIDVRVHNGQAKQSVNEVTNHNGRPQSRVQDRRIQITNGRVKKMENDDDG", "protease stability score", -0.316),
    ("DTEARKLIEELLRAVRDGDPDQVKQNADPNARVQYGDQTFHGMDRYAEWVEEMHKQARVSIEFDSFSFTGDKVQMHAKHVVEVNGKPQRDTVVIRAVVRGDKIRNIHFRMDEQRVRDQQS", "protease stability score", 0.783),
]
